assayOverview: Assessment of solubility: HT solubility in pION buffer, UV spectrophotometry
studyConditions: pION system solution buffer, pH 4.5, pH 4.5, aqueous buffer, kinetic from dmso stock, Solubility (pH 4.5), pH 4.5 buffer, 16-19 h incubation, 1.0% DMSO
assayMetric: solubility

>>> df
                                   molecule  assayresult
0  Cc1cc(CN2CCS(=O)(=O)CC2)ccc1COc1ccc(Cl)cc1-c1csc(N2CC3C(C2)C3C(=O)O)n1 (stereo not drawn)   0.45 µg/mL
1  Cc1ccc(OCc2ccc(C(=O)N3CCCC(C#N)C3)cc2C)c(-c2csc(N3C[C@H]4CC[C@@H](C3)[C@H]4C(=O)O)n2)c1 (stereo partly drawn)  < 0.1 µg/mL
2  COC[C@]1(C(=O)O)[C@@H]2CC[C@H]1CN(c1nc(-c3cc(C)ccc3OCc3ccc(C(=O)N4CCCCC4)cc3C)cs1)C2  < 0.1 µg/mL

###

assayOverview: Assessment of solubility: HT solubility in pION buffer, UV spectrophotometry
studyConditions: pION system solution buffer, pH 7.4, pH 7.4, aqueous buffer, kinetic from dmso stock, Solubility (pH 7.4), pH 7.4 buffer, 16-19 h incubation, 1.0% DMSO
assayMetric: solubility

                                    compound  assaymetric  assayresult
 0  Cc1cc(CN2CCOCC2)ccc1COc1ccc(F)cc1-c1csc(N2C3CCC2CC(C(=O)O)C3)n1 (centres unmarked)   solubility   > 62 µg/mL
 1  Cc1cc(C(=O)N2CCCCC2)ccc1COc1ccc(F)cc1-c1csc(N2C3CCC2CC(C(=O)O)C3)n1 (centres unmarked)   solubility   > 56 µg/mL
 2  CC(=O)N1CCN(Cc2ccc(COc3c(C)cccc3-c3csc(N4CCC(C(=O)O)CC4)n3)c(C)c2)CC1   solubility   > 56 µg/mL
 3  Cc1ccc(OCc2ccc(CN3CCS(=O)(=O)CC3)cc2C)c(-c2csc(N3CC4C(C3)C4C(=O)O)n2)c1 (centres unmarked)   solubility   > 56 µg/mL
 4  Cc1cc(C(=O)N2CCCCC2)ccc1COc1c(C)cccc1-c1csc(N2C3CCC2CC(C(=O)O)C3)n1 (centres unmarked)   solubility   > 55 µg/mL
 5  Cc1ccc(OCc2ccc(CN3CCOCC3)cc2C)c(-c2csc(N3CCC4(C(=O)O)CC4C3)n2)c1 (centres unmarked)   solubility     39 µg/mL
 6  Cc1ccc(OCc2ccc(CN3CCS(=O)(=O)CC3)cc2C)c(-c2csc(N3CCC(C(=O)O)C(C(F)(F)F)C3)n2)c1 (centres unmarked)   solubility   > 63 µg/mL
 7  Cc1ccc(OCc2ccc(CN3CCOCC3)cc2C)c(-c2csc(N3CCCC(C(=O)O)CC3)n2)c1 (centres unmarked)   solubility   > 58 µg/mL
 8  Cc1ccc(OCc2ccc(C(=O)N3CCCCC3)cc2C)c(-c2csc(N3C[C@H]4CC[C@@H](C3)[C@@]4(C)C(=O)O)n2)c1   solubility     21 µg/mL
 9  Cc1ccc(OCc2ccc(CN3CCOCC3)cc2C)c(-c2csc(NCCCC(=O)O)n2)c1   solubility   > 54 µg/mL
10  COCCCN(C)C(=O)c1ccc(COc2ccc(C)cc2-c2csc(N3CCC(C(=O)O)CC3)n2)c(C#N)c1   solubility     12 µg/mL
11  Cc1ccc(OCc2ccc(C(=O)N3CCCCC3)cc2C)c(-c2csc(N3CCC(C(=O)O)CC3C(F)(F)F)n2)c1 (centres unmarked)   solubility   > 60 µg/mL
12  Cc1ccc(OCc2ccc(C(=O)N3CCCCC3)cc2C#N)c(-c2csc(N3CCC(C(=O)O)CC3)n2)c1   solubility     23 µg/mL
13  Cc1cc(CN2CCOCC2)ccc1COc1c(C)cccc1-c1csc(N2CCC(C(=O)O)CC2)n1   solubility   > 52 µg/mL
